system: Klebsiella aerogenes DSM 30053; assay: fold change of Putrescine concentration vs plate DMSO controls (fold change (ratio)); higher = more amine produced, active = hit call of the paper (significant change in both replicates, either direction); conditions: incubation time: 27 h, anaerobic, 37 °C
Structures can show the parent of a compound that is named as a salt.
reported.property: fold change of Putrescine concentration

1) C[C@H](CCC(=O)O)[C@H]1CC[C@H]2[C@@H]3CC[C@@H]4C[C@H](O)CC[C@]4(C)[C@H]3CC[C@]12C [Lithocholic acid] (20 µM)
0.999
2) COC(=O)C1=C(C)NC(C)=C(C(=O)O[C@H]2CCN(Cc3ccccc3)C2)[C@H]1c1cccc([N+](=O)[O-])c1 [Barnidipine Hydrochloride] (20 µM)
0.999
3) C[C@H](CCC(=O)O)[C@H]1CC[C@H]2[C@@H]3[C@H](O)C[C@@H]4C[C@H](O)CC[C@]4(C)[C@H]3CC[C@]12C [Chenodiol] (20 µM)
0.999
4) CCOC(N)=O [Urethane] (20 µM)
1.05
5) CC(=O)OC[C@H]1O[C@@H](n2ncc(=O)[nH]c2=O)[C@H](OC(C)=O)[C@@H]1OC(C)=O [Azaribine] (20 µM)
1.04
6) O=C(O)CCc1nc(-c2ccccc2)c(-c2ccccc2)o1 [Oxaprozin] (20 µM)
1
7) CCCCCCCCNC(C)C(O)c1ccc(SC(C)C)cc1 (stereo unspecified) [Suloctidil] (20 µM)
0.977
8) OCCOCCN1CCN(C2=Nc3ccccc3Sc3ccccc32)CC1 [Quetiapine hemifumarate] (20 µM)
0.978
9) COc1ccc(C(=O)CC(=O)c2ccc(C(C)(C)C)cc2)cc1 [Avobenzone] (20 µM)
0.993
10) CCOC(=O)C1=C[C@]2(CC)CCCN3CCc4c(n1c1ccccc41)[C@@H]32 [Vinpocetine] (20 µM)
1.02
11) NCc1ccccc1CC(=O)N[C@@H]1C(=O)N2C(C(=O)O)=C(CSc3nnnn3CC(=O)O)CS[C@H]12 [Ceforanide] (20 µM)
1.09
12) C[C@@H](NCCCc1cccc(C(F)(F)F)c1)c1cccc2ccccc12 [Cinacalcet hydrochloride] (20 µM)
1.01
13) CCCCc1ncc(/C=C(\Cc2cccs2)C(=O)O)n1Cc1ccc(C(=O)O)cc1 [Eprosartan mesylate] (20 µM)
1
14) O=C(CCCN1CCC(O)(c2ccc(Br)cc2)CC1)c1ccc(F)cc1 [Bromperidol] (20 µM)
1
15) O=C(NCc1ncc(C(F)(F)F)cc1Cl)c1c(Cl)cccc1Cl (20 µM)
1.02
16) CC(c1cc2ccccc2s1)N(O)C(N)=O (stereo unspecified) [Zileuton] (20 µM)
1.01

====

test system: Escherichia coli IAI1; experiment: growth (OD595) fold change vs plate DMSO controls (fold change (ratio)); higher = more growth; conditions: incubation time: 27 h, anaerobic, 37 °C
Structures can show the parent of a compound that is named as a salt.
reported.property: growth

1) COc1ccc(Cl)cc1C(=O)NCCc1ccc(S(=O)(=O)NC(=O)NC2CCCCC2)cc1 [Glibenclamide] (20 µM)
1
2) CC[C@H](C)C(=O)O[C@H]1C[C@@H](C)C=C2C=C[C@H](C)[C@H](CC[C@@H]3C[C@@H](O)CC(=O)O3)[C@H]21 [Lovastatin] (20 µM)
1
3) Cc1ncc([N+](=O)[O-])n1CC(C)O (stereo not drawn) [Secnidazole] (20 µM)
1.07
4) O=C1O[C@H]([C@@H](O)CO)C(O)=C1O [Ascorbic acid] (20 µM)
1.03
5) CC(=O)CC(c1ccc([N+](=O)[O-])cc1)c1c(O)c2ccccc2oc1=O (stereo not drawn) [Acenocoumarol] (20 µM)
1.02
6) NC[C@@H]1O[C@@H](O[C@H]2[C@H](O)[C@@H](O[C@H]3O[C@H](CO)[C@@H](O)[C@H](N)[C@H]3O)[C@H](N)C[C@@H]2N)[C@@H](O)[C@H](O)[C@H]1O [Kanamycin A sulfate] (20 µM)
1.02
7) O=C1c2cccc3c2[C@H](CCC3)CN1[C@@H]1CN2CCC1CC2 [Palonosetron hydrochloride] (20 µM)
1.05
8) Nc1nc2[nH]cc(CCc3ccc(C(=O)N[C@@H](CCC(=O)O)C(=O)O)cc3)c2c(=O)[nH]1 [Pemetrexed disodium] (20 µM)
1.25
9) NS(=O)(=O)c1cc2c(cc1C(F)(F)F)NCNS2(=O)=O [Hydroflumethiazide] (20 µM)
1.05
10) COc1cnc(NS(=O)(=O)c2ccc(N)cc2)nc1 [Sulfameter] (20 µM)
0.976
11) C#C[C@]1(O)CC[C@H]2[C@@H]3CCC4=Cc5oncc5C[C@]4(C)[C@H]3CC[C@@]21C [Danazol] (20 µM)
0.883
12) C#Cc1cccc(Nc2ncnc3cc(OCCOC)c(OCCOC)cc23)c1 [Erlotinib] (20 µM)
0.969
13) C=CCc1ccc(OC)c(OC)c1 [Methyleugenol] (20 µM)
1.08
14) N=C(N)Nc1ccc(C(=O)Oc2ccc3cc(C(=N)N)ccc3c2)cc1 [Nafamostat Mesylate] (20 µM)
0.933
15) COc1cc(N)cn[n+]1-c1ccccc1 [Amezinium metilsulfate] (20 µM)
1.04
16) O=C1NCCN1CCN1CCC(c2cn(-c3ccc(F)cc3)c3ccc(Cl)cc23)CC1 [Sertindole] (20 µM)
1.05
17) CC1(C)S[C@@H]2[C@H](NC(=O)[C@H](NC(=O)N3CCNC3=O)c3ccccc3)C(=O)N2[C@H]1C(=O)O [Azlocillin sodium salt] (20 µM)
0.726
18) CC[C@H]1OC(=O)[C@H](C)[C@@H](O[C@H]2C[C@@](C)(OC)[C@@H](O)[C@H](C)O2)[C@H](C)[C@@H](O[C@@H]2O[C@H](C)C[C@H](N(C)C)[C@H]2O)[C@](C)(O)C[C@@H](C)CN(C)[C@H](C)[C@@H](O)[C@]1(C)O [Azithromycin] (20 µM)
0.212
19) NC[C@H]1O[C@H](O[C@H]2[C@H](O)[C@@H](O[C@H]3O[C@H](CO)[C@@H](O)[C@H](N)[C@H]3O)[C@H](N)C[C@@H]2N)[C@H](N)C[C@@H]1O [Tobramycin] (20 µM)
0.95
20) OC[C@@H](O)[C@@H](O[C@@H]1O[C@H](CO)[C@H](O)[C@H](O)[C@H]1O)[C@H](O)[C@@H](O)CO [Lactitol] (50 µM)
0.949
21) CCC[C@@H]1C[C@@H](C(=O)N[C@@H]([C@H]2O[C@H](SC)[C@H](OP(=O)(O)O)[C@@H](O)[C@H]2O)[C@H](C)Cl)N(C)C1 [Clindamycin Phosphate] (20 µM)
1.04
22) O=c1[nH]c(=O)n([C@H]2C[C@H](O)[C@@H](CO)O2)cc1C(F)(F)F [Trifluridine] (20 µM)
1.04
23) Cc1ccc(C)c(OCCCC(C)(C)C(=O)O)c1 [Gemfibrozil] (20 µM)
1.01
24) Nc1ccc(S(=O)(=O)Nc2ccccn2)cc1 [Sulfapyridine] (20 µM)
1.06
25) CCOc1ccccc1C(N)=O [Ethenzamide] (20 µM)
1
26) OC(c1cc(C(F)(F)F)nc2c(C(F)(F)F)cccc12)C1CCCCN1 (stereo not drawn) [Mefloquine hydrochloride] (20 µM)
0.858
27) CN(CCOc1ccc(CC2SC(=O)NC2=O)cc1)c1ccccn1 (stereo not drawn) [Rosiglitazone hydrochloride] (20 µM)
1.15
28) O=C1c2c(O)ccc(O)c2C(=O)c2c(NCCNCCO)ccc(NCCNCCO)c21 [Mitoxantrone dihydrochloride] (20 µM)
0.831

====

tested on: Ruminococcus gnavus DSM 108212; assay: fold change of Tryptamine concentration vs plate DMSO controls (fold change (ratio)); higher = more amine produced, active = hit call of the paper (significant change in both replicates, either direction); conditions: incubation time: 27 h, anaerobic, 37 °C;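 for the amine columns active = adjusted P below 0.05 in both replicates with a change the same way and a mean fold change under 0.8 or over 1.25; inactive = the rest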
Where a name gives a salt, the structure may show the parent alone.
Classes used: true (1) = active, false (0) = inactive

1. CC(C)(C)C(=O)C(Oc1ccc(Cl)cc1)n1ccnc1 (configuration not stated) [Climbazole] (20 µM)
false (0)
2. C[N+](C)(C)CCCCCC[N+](C)(C)C [Hexamethonium dibromide dihydrate] (20 µM)
false (0)
3. CCN(CC)CCOC(=O)C1(C2CCCCC2)CCCCC1 [Dicyclomine hydrochloride] (20 µM)
false (0)
4. N[C@@H]1CCCCN(c2c(F)cc3c(=O)c(C(=O)O)cn(C4CC4)c3c2Cl)C1 [Besifloxacin hydrochloride] (20 µM)
true (1)
5. CN1CCN(C(c2ccccc2)c2ccc(Cl)cc2)CC1 (configuration not stated) [Chlorcyclizine hydrochloride] (20 µM)
false (0)
6. CC(C)NCC(O)COc1ccc(COCCOC(C)C)cc1 (configuration not stated) [Bisoprolol hemifumarate] (20 µM)
false (0)
7. CC1(C)S[C@@H]2[C@H](NC(=O)C(c3ccccc3)S(=O)(=O)O)C(=O)N2[C@H]1C(=O)O (some centres not stated) [Sulbenicillin sodium salt] (20 µM)
true (1)
